Tested on: Staphylococcus aureus
Assay: Antimicrobial activity against methicillin resistant Staphylococcus aureus MRS3525 incubated in diluted brain heart infusion medium
Format: functional
# MIC99 listing for each entry below
Quantity Measured: MIC99 (µg/mL)

>>> print(df.to_string())
           substance  quantity_measured  number
0  H-CFAWQRNMRKVR-OH              MIC99     3.5
1  H-CFQWQANMRKVR-OH              MIC99       7
2  H-CFQWQRNARKVR-OH              MIC99     3.5
3  H-CFQWQRNMAKVR-OH              MIC99       7
4  H-CFQWQRAMRKVR-OH              MIC99     3.5
5  H-CFQWQRNMRAVR-OH              MIC99     3.5
6  H-CFQAQRNMRKVR-OH              MIC99      14
7  H-CFQWQRNMRKAR-OH              MIC99     3.5
8  H-CAQWQRNMRKVR-OH              MIC99       7
